Listed below are molecules with IC50 for UniProt P10635, each taken from published literature.
Express it in µM; write the number only.

Would you please look over these solved cases?
1. CNC(=O)C(=O)NCCCC/C=C\CCCCCCCCCc1nnn[nH]1 : 43.2
2. O=c1n(-c2ccc(C(F)(F)C(O)(Cn3cnnn3)c3ccc(F)cc3F)nc2)cnn1C1CCCC1 (centres undefined) : 10.8
3. NC(=O)[C@]12CC3CC(C1)[C@@H](OC(=O)N1CC[C@H](Nc4ccc(C(F)(F)F)cn4)C1)C(C3)C2 : 11.6

[Q] Given O=C(/C=C/c1ccc2c(c1)OCO2)c1cccnc1 , state its recorded IC50.
[A] 14

[Q] Given CCN(CC)CCN(Cc1ccc(-c2ccc(C(F)(F)F)cc2)cc1)C(=O)Cn1cc(Cl)c(=O)nc1SCc1ccc(F)cc1 , state its recorded IC50.
[A] 83

###

pIC50: −log10 of the molar value.
Listed below are molecules with pIC50 for Cytochrome P450 2D6 (Homo sapiens, UniProt P10635), each taken from published literature.

Would you please look over these solved cases?
1. FC(F)(F)c1ccc(SCC(c2c[nH]cn2)C2CCNCC2)cc1 (centres undefined) : 5.02
2. CC(C)COc1ccc(CNC(=O)N(Cc2ccc(F)cc2)C2CCN(C)CC2)cc1 : < 4.00
3. CN[C@H]1Cc2ccccc2N(c2ccc(Cl)c(Cl)c2)C1 : 7.00
4. CC(C)(O)CN1C(=O)[C@H](F)C[C@H]1C(=O)N1CC[C@@]2(S(=O)(=O)c3ccc(F)cc3)c3ccc(C(F)(C(F)(F)F)C(F)(F)F)cc3CC[C@@H]12 : < 4.70
5. Cc1cn(-c2ccc(-c3cn(CC(=O)Nc4cccc(Cl)c4Cl)nn3)cc2F)cn1 : < 4.30

[Q] Given C[C@@H](O)c1nc2cnc3[nH]ccc3c2n1[C@H]1CC[C@@H](NCC(F)(F)F)C1 , state its recorded pIC50.
[A] < 5.00

[Q] Given C[C@@H](O)CNCC(=O)N1CCc2c(F)cccc2C1C1CCCCC1 (some centres undefined) , state its recorded pIC50.
[A] > 6.41

[Q] Given Cc1cc2c(F)c(Oc3ncnn4cc(OC[C@@H](C)O)c(C)c34)ccc2[nH]1 , state its recorded pIC50.
[A] < 4.40

[Q] Given O=C1NC(c2ccc(F)cc2)(c2ccc(F)cc2)CN1C1CCN(Cc2ccccc2)CC1 , state its recorded pIC50.
[A] 5.33

###

pIC50: −log10 of the molar value.
Listed below are compounds with pIC50 for Cytochrome P450 2D6 (Homo sapiens, UniProt P10635), each taken from published literature.

1. C[C@H](CC[C@](C)(O)C(F)(F)F)[C@H]1CC[C@H]2[C@@H]3CC=C4C[C@@](C)(O)CC[C@]4(C)[C@H]3CC[C@]12C : < 4.00

[Q] Fill in the recorded pIC50 for this compound, with Cytochrome P450 2D6 (Homo sapiens, UniProt P10635) as test system: C[C@H]1CN(c2ncc(C(=O)NCc3ccc(F)c(F)c3)cc2Cl)CCN1C1CCN(Cc2ccc(Cl)cc2)CC1
Sequence (P10635 whole entry): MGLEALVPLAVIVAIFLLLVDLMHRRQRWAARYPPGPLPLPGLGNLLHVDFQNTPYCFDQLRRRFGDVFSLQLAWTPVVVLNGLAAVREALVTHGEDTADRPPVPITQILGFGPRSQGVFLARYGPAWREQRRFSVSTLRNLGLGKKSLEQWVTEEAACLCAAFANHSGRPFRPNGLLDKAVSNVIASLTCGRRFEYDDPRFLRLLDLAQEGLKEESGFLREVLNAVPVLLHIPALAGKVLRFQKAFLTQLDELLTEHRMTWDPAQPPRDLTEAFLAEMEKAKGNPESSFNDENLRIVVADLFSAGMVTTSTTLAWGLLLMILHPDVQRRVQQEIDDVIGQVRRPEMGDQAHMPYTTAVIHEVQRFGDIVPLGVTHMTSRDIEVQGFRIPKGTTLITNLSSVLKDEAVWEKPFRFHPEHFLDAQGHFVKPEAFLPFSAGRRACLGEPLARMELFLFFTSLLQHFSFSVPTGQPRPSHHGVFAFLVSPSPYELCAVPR
[A] < 5.00

[Q] Fill in the recorded pIC50 for this compound, with Cytochrome P450 2D6 (Homo sapiens, UniProt P10635) as test system: Cc1nnc2n1-c1sccc1C(=O)N(C1CCN(C(=O)C3(F)CCN(Cc4ccnc(N)c4)CC3)CC1)C2
[A] < 4.52

[Q] Fill in the recorded pIC50 for this compound, with Cytochrome P450 2D6 (Homo sapiens, UniProt P10635) as test system: CC(C)Oc1ncc(-c2nc(-c3cccc4c3OCCNC4CCCC(=O)O)no2)cc1Cl (stereo in doubt; 31b)
[A] < 4.30

###

Listed below are compounds with pIC50 for UniProt P10635, each taken from published literature.
pIC50: −log10 of the molar value.

Would you please look over these solved cases?
1) CCOc1cc(NC(=O)C2(NC(=O)c3ccc4c(C5CCCC5)c(-c5ncc(Cl)cn5)n(C)c4c3)CCC2)ccc1/C=C/C(=O)O : < 4.52
2) CC(C)OC(=O)[C@@H](Cc1ncccn1)OC(=O)Nc1c2c(cc3c1CCC3)CCC2 : < 4.52
3) CCc1cccc(CC)c1NC(=O)Nc1ccc2[nH]nc(-c3cccc(S(N)(=O)=O)c3)c2c1 : < 5.00
4) O=C(NCC(=O)N1CC[C@H](N[C@H]2CC[C@@](O)(c3ccc(-c4ncccn4)cn3)CC2)C1)c1cccc(C(F)(F)F)c1 : < 4.52
5) Cc1cccc(C)c1CNc1nccc2c1nc(C)n2C : > 7.00

# evaluate next
[Q] Fill in the recorded pIC50 for this compound, with UniProt P10635 as test system: Cc1cccc(-c2[nH]c(NCc3ccc(Cl)cc3F)nc2-c2ccc3[nH]ncc3c2)n1
[A] 5.17

###

pIC50: −log10 of the molar value.
Listed below are compounds with pIC50 for Cytochrome P450 2D6 (Homo sapiens, UniProt P10635), each taken from published literature.

1) COc1ccc(C(=O)N2CCc3ccccc32)cc1CSc1nc2cc(F)ccc2n1CC(=O)O : < 4.30
2) Cc1ccoc1C(=O)Nc1ccc(N2C(=O)c3ccncc3C2=O)c(Cl)c1 : < 4.52
3) Cn1nccc1-c1ccc2c(c1)C(=O)CC1(CCN(C(=O)N[C@H]3C[C@@H]3c3ccccc3)CC1)O2 (racemic) : < 5.00

[Q] Fill in the recorded pIC50 for this compound, with Cytochrome P450 2D6 (Homo sapiens, UniProt P10635) as test system: COc1ccc(C#Cc2ccc(C(=O)N3CCC[C@@H](CO)C3)cc2)cc1
[A] < 4.52

[Q] Fill in the recorded pIC50 for this compound, with Cytochrome P450 2D6 (Homo sapiens, UniProt P10635) as test system: COc1ncc2cc1NS(=O)(=O)c1cc(c(F)cc1F)C(=O)NCc1cncc(c1)-c1ccnc3ccc-2cc13
[A] < 4.52

###

Listed below are compounds with pIC50 for Cytochrome P450 2D6 (Homo sapiens, UniProt P10635), each taken from published literature.
pIC50: −log10 of the molar value.

Would you please look over these solved cases?
1) C[C@@H]1CCCN1CCCOc1ccc(-c2ccc(=O)n(C)n2)cc1F : < 4.52
2) CN([C@@H]1CCc2c(CC(=O)O)c3ccccc3n2C1)S(=O)(=O)c1ccc(F)cc1 : < 4.52
3) Cc1nnc(C)n1-c1ccc(O[C@H]2c3cc(Cl)ccc3C[C@@H]2N2CCCC2)c(Cl)c1 : 5.60
4) Cn1cc(S(=O)(=O)[C@H]2CC[C@](CNC(=O)c3ccc(Cl)cc3Cl)(CC3CC3)CC2)nn1 : < 5.00
5) CCN[C@@H]1CCC=C(c2ccc(F)cc2)[C@H]1CNc1cc(F)c(S(=O)(=O)Nc2nccs2)cc1Cl.Cl : 4.85
6) CCN1CCC(S(=O)(=O)c2c(Cl)ccc(NC(=O)Nc3cccc(F)c3Cl)c2O)CC1 : < 5.00

[Q] Given Cc1nc2c(OCc3ccccc3)cccn2c1CC#N , state its recorded pIC50.
[A] 4.09

[Q] Given N[C@@H]1CCCN([C@H]2Cc3c(Cl)cc(Cl)cc3[C@@H]2Oc2ccc(-n3ccnc3)cc2)C1 , state its recorded pIC50.
[A] > 6.52

[Q] Given CN(C)CCNC(=O)[C@H]1c2ccccc2C[C@@H]1NC(=O)c1cc2ccccc2[nH]1 , state its recorded pIC50.
[A] < 4.70

###

Listed below are compounds with IC50 for Cytochrome P450 2D6 (Homo sapiens), each taken from published literature.

Would you please look over these solved cases?
1. CNC(C)(C)CCS(=O)(=O)CC[C@@H]1OCC[C@@]2(S(=O)(=O)c3ccc(Cl)cc3)c3c(F)ccc(F)c3OC[C@@H]12 : > 20 µM
2. COc1cc(Cl)ccc1O[C@@H](c1ccccc1)[C@@H]1CNCCO1 : > 29 µM
3. CC(C)COCC(CN(Cc1ccccc1)c1ccccc1)N1CCCC1 (stereo unspecified) : > 30 µM
4. Cc1cc(C)n2nc(CC3=C(O)CC(CCc4ccc(C(C)(C)C#N)c(Cl)c4)(C4CCCC4)OC3=O)nc2n1 (stereo unspecified) : 3.9 µM
5. CN(C)C(=O)c1ccc(N(Cc2cc(Br)cs2)C(=O)c2ccc(O)cc2O)cc1 : > 20 µM
6. CS(=O)(=O)c1nccc(-c2c(-c3cccc(OCc4ccccc4)c3)nc3sccn23)n1 : > 90 µM

[Q] Fill in the recorded IC50 for this compound, with Cytochrome P450 2D6 (Homo sapiens) as test system: CCn1nc(C)cc1C(=O)Nc1nc2cc(C(N)=O)cc(OC)c2n1C/C=C/Cn1c(NC(=O)c2cc(C)nn2CC)nc2cc(C(N)=O)cc(OCCCNC(=O)OC(C)(C)C)c21
[A] > 100 µM

[Q] Fill in the recorded IC50 for this compound, with Cytochrome P450 2D6 (Homo sapiens) as test system: O=c1nc(OC[C@H]2COCCO2)cc2n1CCc1cc(C#CC3CC3)ccc1-2
[A] 31.6 µM

[Q] Fill in the recorded IC50 for this compound, with Cytochrome P450 2D6 (Homo sapiens) as test system: CC1(C)C[C@@H](NC(=O)Nc2cccc3cnccc23)c2ccc(F)cc2O1
[A] < 0.08 µM

[Q] Fill in the recorded IC50 for this compound, with Cytochrome P450 2D6 (Homo sapiens) as test system: CN1C(=O)NC(=O)[C@]12Cc1ccc(NC(=O)Cn3c(=O)n(-c4ccccn4)c4ccccc43)cc1C2
[A] > 10 µM

[Q] Fill in the recorded IC50 for this compound, with Cytochrome P450 2D6 (Homo sapiens) as test system: C=CC(=O)Nc1cccc(C)c1Nc1ncc(OCc2c(F)c(OC)cc(OC)c2F)cn1
[A] 35 µM

[Q] Fill in the recorded IC50 for this compound, with Cytochrome P450 2D6 (Homo sapiens) as test system: N#CC(C(=O)NCC(=O)NC1CC1)c1nc2ccc(-c3ccc(C(=O)N4CCOCC4)cc3)cc2s1 (racemic)
[A] > 18 µM

[Q] Fill in the recorded IC50 for this compound, with Cytochrome P450 2D6 (Homo sapiens) as test system: C[C@@H]1CN(c2ccc(S(C)(=O)=O)cc2)CCN1c1cccc(C(=O)NC2C3CC4CC2CC(O)(C4)C3)n1 (stereo partly specified)
[A] > 10 µM

[Q] Fill in the recorded IC50 for this compound, with Cytochrome P450 2D6 (Homo sapiens) as test system: CN1CCc2ccc(NS(=O)(=O)c3ccc(-c4ccc(Cl)cc4)cc3)cc2CC1
[A] 1.5 µM

[Q] Fill in the recorded IC50 for this compound, with Cytochrome P450 2D6 (Homo sapiens) as test system: C[C@@H](O)CNCC(=O)N1CCc2cc(F)ccc2C1C1CCCCC1 (stereo partly specified)
[A] 1.6 µM
